Assayed system: Neutrophil elastase (Homo sapiens) (UniProt P08246)
Sequence (P08246 whole entry, looked up): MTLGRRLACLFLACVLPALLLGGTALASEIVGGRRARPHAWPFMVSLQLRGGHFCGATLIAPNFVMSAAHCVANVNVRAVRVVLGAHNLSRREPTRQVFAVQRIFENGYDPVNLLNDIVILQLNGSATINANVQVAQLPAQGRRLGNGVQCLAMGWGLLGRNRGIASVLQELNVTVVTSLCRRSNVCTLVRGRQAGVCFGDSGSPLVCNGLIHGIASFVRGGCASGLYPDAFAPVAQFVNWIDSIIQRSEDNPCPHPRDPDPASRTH
Assay notes: Binding affinity against human Elastase
Peptide text beside a SMILES is read from it. * marks the point of attachment. CF3 = FC(F)(F)*

{"Compound": "CC(=O)N[C@@H](C)C(=O)N[C@@H](C)C(=O)N1CCC[C@H]1C(=O)N[C@@H](C)C(=O)C(F)(F)F (Ac-AAPA-CF3)", "Ki": "24 µM"}

----------
Assayed system: Cathepsin G (Rattus norvegicus)
Assay notes: Binding affinity against rat Cathepsin G
Peptide text beside a SMILES is read from it. * marks the point of attachment. MeOSuc = COC(=O)CCC(=O)*; CF3 = FC(F)(F)*

{"Compound": "COC(=O)CCC(=O)N[C@H](C(=O)N1CCC[C@H]1C(=O)N[C@@H](Cc1ccccc1)C(=O)C(F)(F)F)C(C)C (MeOSuc-Val-Pro-Phe-CF3)", "Ki": "0.2 µM"}
